system: HIV-1 (JRCSF); assay: Anti-HIV activity in MaRBLE cells infected with HIV-1 (JRCSF), luciferase readout; format: cell-based; conditions: Human immunodeficiency virus 1, 168 h; MaRBLE cells (human T lymphocyte-derived HPB-M(a)) infected with HIV-1 (JRCSF); 7 days culture; rate of viral proliferation by luciferase activity; read-out: Anti-HIV activity IC50
assay_metric: IC50 (µM)
Quick note: give the figure in µM, leave out the unit.

Answered cases to consult:
{"columns": ["smiles_text", "unit_info", "IC50"],
 "data": [
  ["Cc1ncnc2c1c(NCc1cccc(C(F)(F)F)c1)cc(=O)n2O", "µM", 0.043],
  ["Cc1ncnc2c1c(NCc1ccc(-c3ccccc3)nc1)cc(=O)n2O", "µM", 0.043],
  ["O=c1cc(O)c2c(-c3ccccc3)ncnc2n1O", "µM", 0.49],
  ["CC(=O)Nc1ccc(CNc2cc(=O)n(O)c3ncnc(C)c23)cc1", "µM", 0.13],
  ["COc1ccc(CNc2cc(=O)n(O)c3ncncc23)cc1", "µM", 0.11],
  ["Cc1ccc(CNc2cc(=O)n(O)c3ncnc(C)c23)cn1", "µM", 0.11]
]}

Now let's try a different one.
Ask | Name the recorded IC50 of the item "Cc1ncnc2c1c(NCc1ccc(CN)cc1)cc(=O)n2O" in your answer.
Reply | 0.14

----------
tested on: HIV-1 (JRCSF); assay: Anti-HIV activity in MaRBLE cells infected with HIV-1 (JRCSF), luciferase readout; type: cell-based; conditions: Human immunodeficiency virus 1, 168 h; MaRBLE cells (human T lymphocyte-derived HPB-M(a)) infected with HIV-1 (JRCSF); 7 days culture; rate of viral proliferation by luciferase activity; read-out: Anti-HIV activity IC50
assay_metric: IC50 (nM)
Quick note: give the figure in nM, leave out the unit.

Ask | Name the recorded IC50 of the item Cc1ccccc1CNc1cc(=O)n(O)c2ncnc(C)c12 [Example 46] in your answer.
Reply | 40

Ask | Name the recorded IC50 of the item Cc1ncnc2c1c(NCc1ncc[nH]1)cc(=O)n2O [Example 154] in your answer.
Reply | 720

Ask | Name the recorded IC50 of the item O=c1cc(NCc2ccccc2)c2c(-c3ccccc3)ncnc2n1O [Example 60] in your answer.
Reply | 190

Ask | Name the recorded IC50 of the item COc1ncccc1CNc1cc(=O)n(O)c2ncnc(C)c12 [Example 157] in your answer.
Reply | 44

Ask | Name the recorded IC50 of the item Cc1ncnc2c1c(NCc1ccc(C#N)cc1)cc(=O)n2O [Example 42] in your answer.
Reply | 72

Ask | Name the recorded IC50 of the item Cc1ncnc2c1c(NCc1ccccc1CN)cc(=O)n2O [Example 140] in your answer.
Reply | 190

Ask | Name the recorded IC50 of the item Cc1ncnc2c1c(NCc1ccc(N)nc1)cc(=O)n2O [Example 162] in your answer.
Reply | 67

Ask | Name the recorded IC50 of the item Cc1ncnc2c1c(NCc1ccc(N(C)C)nc1)cc(=O)n2O [Example 40] in your answer.
Reply | 48

Ask | Name the recorded IC50 of the item O=c1cc(NCc2cccnc2)c2cncnc2n1O [Example 18] in your answer.
Reply | 230

Ask | Name the recorded IC50 of the item Cc1ncnc2c1c(NCc1cccc(Cl)c1)cc(=O)n2O [Example 47] in your answer.
Reply | 59

The origin of these recorded values is patent US20150018546A1.
